test system: IL-2 secretion by human effector memory T cells (TEM); assay: Effector memory T cells IL-2 release assay; format: cell-based; details: T-cell; human CD4+ effector memory T cells, CD3/CD28 bead stimulation, 24 h; read-out: CD4TC IL2 IC50
Where a name gives a salt, the structure may show the parent alone.
Just a reminder that ties go to Criterion not met: only IC50 strictly below 200 nM counts as Criterion met.

## Task Given CN(C(=O)C1CCCCO1)[C@@H](c1ccc(N2CCCc3c2cnc2cc(Cl)nn32)cc1)C(F)(F)F (stereo partly shown) [CPD0021569] , is recorded IC50 strictly lower than 200 nM?
## Result Criterion not met

## Task Determine whether this compound shows IC50 lower than 200 nM (ties excluded): COc1ccc2ncc(Nc3ccc([C@H](N(C)C(=O)C4CCS(=O)(=O)CC4)C(F)(F)F)cn3)c([C@@H](C)OC)c2n1 (relative stereo) [CPD0019006]
## Result Criterion met

## Task For CN(C(=O)C1CCS(=O)(=O)CC1)[C@@H](c1ccc(N2CCCc3c2cnc2cc(Cl)nn32)cc1)C(F)F [CPD0073041] , is the recorded IC50 below the cut-off of 200 nM?
## Result Criterion not met

## Task Dear colleague, could you confirm whether IC50 of CN(C(=O)[C@H]1CC[S@@+]([O-])CC1)[C@@H](c1ccc(N2CCC(C)(C)c3c2cnc2cc(F)nn32)cc1)C(F)(F)F (relative stereo) [CPD0072780] falls below 200 nM? Thanks.
## Result Criterion met

## Task Answer whether the compound CN(C(=O)C1CCOCC1)[C@@H](c1ccc(N2CCCc3c2cnc2cc(Cl)nn32)cc1)C(F)(F)F [CPD0021574] has IC50 strictly less than 200 nM
## Result Criterion met

## Task # TODO verify IC50 < 200 nM strictly for this compound: COC[C@@]1(C)CCN(c2ccc([C@H](N(C)C(=O)[C@H]3CC[S@+]([O-])CC3)C(F)(F)F)cc2)c2cnc3cc(Cl)nn3c21 (relative stereo) [CPD0073138]
## Result Criterion met

## Task Is IC50 strictly under 200 nM for the entry CN(C(=O)C12CN(C1)S(=O)(=O)C2)[C@@H](c1ccc(N2CCCc3c2cnc2cc(Cl)nn32)cc1)C(F)(F)F [CPD0073087] ?
## Result Criterion met

## Task Record COc1ccc2ncc3c(c2n1)CCCN3c1ccc([C@H](N(C)C(=O)C2CCS(=O)(=O)CC2)C(F)(F)F)cc1 [CPD0072532] : is its IC50 strictly below 200 nM?
## Result Criterion not met

## Task Would you kindly verify if IC50 of CN(C(=O)[C@H]1CCC(=O)NC1)[C@@H](c1ccc(N2CCCc3c2cnc2cc(Cl)nn32)cc1)C(F)(F)F (relative stereo) [CPD0073569] is strictly less than 200 nM?
## Result Criterion met

## Task For CNCC(=O)N1CC[C@@H](C(=O)N(C)[C@@H](c2ccc(N3CCCc4c3cnc3cc(Cl)nn43)cc2)C(F)(F)F)C1 (relative stereo) [CPD0075881, hydrochloride] , is the recorded IC50 below the cut-off of 200 nM?
## Result Criterion not met

## Task Here's an entry: CN(C)CC(=O)N1CC[C@H](C(=O)N(C)[C@@H](c2ccc(N3CCCc4c3cnc3cc(Cl)nn43)cc2)C(F)(F)F)C1 (relative stereo) [CPD0075876] . Is its IC50 below 200 nM?
## Result Criterion not met

## Task I'd appreciate it if you could check whether CN(C(=O)[C@H]1C[C@H]([S@@+](C)(=N)[O-])C1)[C@@H](c1ccc(N2CCCc3c2cnc2cc(Cl)nn32)cc1)C(F)(F)F [CPD0073225] has IC50 smaller than 200 nM.
## Result Criterion met

## Task Could you please tell me whether IC50 recorded for CN(C(=O)[C@H]1CC[S@+]([O-])CC1)[C@@H](c1ccc(N2CCCc3c2cnc2cc(Cl)nn32)cc1)C(F)(F)F (relative stereo) [CPD0022137] is less than 200 nM?
## Result Criterion met

## Task In the record for COC(C)c1c(Nc2ccc([C@H](N(C)C(=O)C3CCS(=O)(=O)CC3)C(F)(F)F)cc2)cnn2cc(Cl)nc12 (stereo partly shown) [CPD0072526] , is IC50 less than 200 nM?
## Result Criterion met

## Task Hello, is IC50 of the following compound strictly smaller than 200 nM? CN(C(=O)C1CCS(=O)(=O)CC1)[C@@H](c1ccc(N2CCCc3c2cnc2cc(Cl)nn32)cn1)C(F)(F)F [CPD0073056]
## Result Criterion not met

## Task Input CN(C(=O)C1CCS(=O)(=O)CC1)[C@@H](c1ccc(N2CCC(C)(C)c3c2cnc2cc(Cl)nn32)cc1)C(F)(F)F [CPD0019589] ; condition: IC50 strictly below 200 nM. Does it hold?
## Result Criterion met

## Task Determine if CN(C(=O)C1CC(O)C1)[C@@H](c1ccc(N2CCCc3c2cnc2cc(Cl)nn32)cc1)C(F)(F)F (stereo partly shown) [CPD0021565] shows IC50 strictly lower than 200 nM.
## Result Criterion met

## Task Would you kindly verify if IC50 of CCN(C(=O)C1CCS(=O)(=O)CC1)[C@@H](c1ccc(N2CCCc3c2cnc2cc(Cl)nn32)cc1)C(F)(F)F [CPD0073918] is strictly less than 200 nM?
## Result Criterion met

## Task Hi there! Is IC50 for CN(C(=O)[C@H]1CC[S@@+]([O-])CC1)[C@@H](c1ccc(N2CCC3(CC3)c3c2cnc2cc(Cl)nn32)cc1)C(F)(F)F (relative stereo) [CPD0072778] below 200 nM, do you know?
## Result Criterion met

## Task # strict comparison: is reported IC50 < 200 nM? input = CC(=O)N1CC[C@@H](C(=O)N(C)[C@@H](c2ccc(N3CCCc4c3cnc3cc(Cl)nn43)cc2)C(F)(F)F)C1 (relative stereo) [CPD0073188]
## Result Criterion not met

## Task Does CN(C(=O)[C@@H]1CC12CCS(=O)(=O)CC2)[C@@H](c1ccc(N2CCCc3c2cnc2cc(Cl)nn32)cc1)C(F)(F)F (relative stereo) [CPD0073921] have IC50 strictly under 200 nM?
## Result Criterion met

## Task In the record for CN(C(=O)CC#N)[C@@H](c1ccc(N2CCCc3c2cnc2cc(Cl)nn32)cc1)C(F)(F)F [CPD0019342] , is IC50 less than 200 nM?
## Result Criterion met

## Task Confirm or reject: IC50 of O=C(CC1CS(=O)(=O)C1)N[C@@H](c1ccc(N2CCCc3c2cnc2cc(Cl)nn32)cc1)C(F)(F)F [CPD0073535] lies strictly below 200 nM
## Result Criterion not met

## Task # strict comparison: is reported IC50 < 200 nM? input = C[C@@H]1CCN(c2ccc([C@H](N(C)C(=O)[C@H]3CC[S@@](=N)(=O)CC3)C(F)(F)F)cc2)c2cnc3cc(F)nn3c21 (relative stereo) [CPD0074556]
## Result Criterion met

## Task For this compound, is IC50 lower than 200 nM? COCC(=O)N1CC[C@H](C(=O)N(C)[C@@H](c2ccc(N3CCCc4c3cnc3cc(Cl)nn43)cc2)C(F)(F)F)C1 (relative stereo) [CPD0075874]
## Result Criterion not met
